Target: isolated recombinant JAK1 kinase domain (Homo sapiens (Human))
Sequence (P23458 875-1153): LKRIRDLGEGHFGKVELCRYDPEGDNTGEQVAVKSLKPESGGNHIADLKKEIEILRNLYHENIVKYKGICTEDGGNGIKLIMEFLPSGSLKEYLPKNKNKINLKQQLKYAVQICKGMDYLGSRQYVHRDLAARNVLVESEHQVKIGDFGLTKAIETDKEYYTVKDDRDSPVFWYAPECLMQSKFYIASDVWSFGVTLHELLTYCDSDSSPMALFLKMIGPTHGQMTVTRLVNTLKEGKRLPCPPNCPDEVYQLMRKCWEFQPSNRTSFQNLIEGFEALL
Assay: JAK1 enzyme assay (Caliper LabChip, Ki)
Assay type: biochemical
Settings: isolated recombinant JAK1 kinase domain, 1.5 nM enzyme, ATP 25 μM
Please go through the items and note down their Ki.

Please look up its Ki: CN1CCN(C(=O)Cn2cc(Nc3nc4c(N5CC6CCC(C5)N6C(=O)CC5CC5(F)F)cccn4n3)cn2)CC1 (stereo not shown) [Example 16] 1 nM

// returns reported Ki for input CN1CCN(C(=O)Cn2cc(Nc3nc4c(N5CC6CCC(C5)N6C(=O)c5ccns5)cccn4n3)cn2)CC1 [Example 87] 0.6 nM

Please give the measured Ki for this compound: CN1CCN(C(=O)Cn2cc(Nc3nc4c(N5CC6CCC(C5)N6Cc5ccccc5)cccn4n3)cn2)CC1 [Example 86] 19.2 nM

What value of Ki has been reported for the following compound? CN1CCN(C(=O)Cn2cc(Nc3nc4c(N5CC6CCC(C5)N6C(=O)CC(O)C(F)(F)F)cccn4n3)cn2)CC1 (stereo not shown) [Example 154] 0.5 nM

Where do the numbers come from? From patent US10189836B2.
